Entry source: paper PMC9889419

Recorded Metric: pKi
Here pKi is given on a logarithmic scale as minus log10 of the concentration in mol/L.

Entry CCC(CO)NCCOc1c(C)cccc1Cl (stereo not shown) : pKi on 5-HT transporter (Homo sapiens) = 5.77

* * *

Experiment: Tissue distribution;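 also: organ homogenates in PBS analysed by HPLC after FMOC-Cl derivatization, non-compartmental analysis, Kp as tissue over plasma AUC, half-life taken as ln2 divided by λz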
Type: in vivo, rats
Conditions: male, Wistar, rat; 5 mg/kg iv, Liver
Recorded Metric: Cmax (ng/g)
All answers are understood in ng/g, so give the number only.

get_value(item= CCC(CO)NCCOc1c(C)cccc1Cl (stereo not shown) , readout=Cmax) returns 161

* * *

Experiment: Pharmacokinetics in plasma
Type: in vivo, rats
Conditions: male, Wistar, rat, plasma; rats, po 100 mg/kg
Recorded Metric: AUC(0-t) (ng·h/mL)
All answers are understood in ng·h/mL, so give the number only.

get_value(item= CCC(CO)NCCOc1c(C)cccc1Cl (stereo not shown) , readout=AUC(0-t)) returns 807
